I'd appreciate it if you could supply EC50 values for the items below.
# Measurement target: human mGluR5a receptor (Homo sapiens)
# Construct: host or cells: HEK293A (monoclones H10H and H12H)
# Sequence (P41594 21-1180 isoform P41594-2 limits assumed): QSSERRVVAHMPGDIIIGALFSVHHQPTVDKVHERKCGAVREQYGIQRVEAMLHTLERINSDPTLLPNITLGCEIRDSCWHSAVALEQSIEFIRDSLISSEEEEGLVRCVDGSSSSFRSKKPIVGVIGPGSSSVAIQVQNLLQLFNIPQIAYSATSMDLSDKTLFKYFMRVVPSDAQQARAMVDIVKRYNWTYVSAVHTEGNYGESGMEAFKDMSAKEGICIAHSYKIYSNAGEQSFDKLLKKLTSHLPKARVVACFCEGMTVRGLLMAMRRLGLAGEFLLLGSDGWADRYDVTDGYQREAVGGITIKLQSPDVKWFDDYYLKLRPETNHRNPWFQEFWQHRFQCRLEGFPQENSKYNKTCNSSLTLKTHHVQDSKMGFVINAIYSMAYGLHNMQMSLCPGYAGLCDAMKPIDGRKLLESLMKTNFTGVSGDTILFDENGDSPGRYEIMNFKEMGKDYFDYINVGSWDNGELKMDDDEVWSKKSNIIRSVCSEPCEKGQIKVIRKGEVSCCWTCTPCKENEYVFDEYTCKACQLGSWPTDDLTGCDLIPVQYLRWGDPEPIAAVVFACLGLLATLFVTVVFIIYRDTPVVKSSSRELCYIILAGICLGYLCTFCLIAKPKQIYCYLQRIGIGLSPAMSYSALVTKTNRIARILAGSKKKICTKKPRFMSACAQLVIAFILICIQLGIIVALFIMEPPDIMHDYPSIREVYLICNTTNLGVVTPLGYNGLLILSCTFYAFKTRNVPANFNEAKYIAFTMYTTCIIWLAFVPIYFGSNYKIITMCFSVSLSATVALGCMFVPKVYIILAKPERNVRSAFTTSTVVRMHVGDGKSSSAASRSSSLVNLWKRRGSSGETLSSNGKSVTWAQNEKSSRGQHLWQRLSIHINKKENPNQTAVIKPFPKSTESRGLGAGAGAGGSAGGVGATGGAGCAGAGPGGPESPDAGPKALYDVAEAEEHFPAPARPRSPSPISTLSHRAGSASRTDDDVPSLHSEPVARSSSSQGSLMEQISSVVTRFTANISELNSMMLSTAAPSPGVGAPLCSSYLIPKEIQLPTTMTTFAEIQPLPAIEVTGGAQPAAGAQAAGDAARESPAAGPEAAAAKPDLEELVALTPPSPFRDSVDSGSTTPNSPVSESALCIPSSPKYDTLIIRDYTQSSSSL
# Assay details: Functional Assay 2: Ca2+ mobilization, HEK cells with human mGluR5a receptor (H10H cell line)
# Type: cell-based
# Condition summary: H10H cell line, glutamate EC20

*Q* I am curious: what EC50 value has been reported for CC(C)N1CCc2nc(COc3cccc(F)c3)sc2C1=O ?
*A* > 30.2 µM

*Q* Then what about the compound O=C1c2sc(COc3ccccc3F)nc2CCN1C1CC1 ?
*A* > 30.2 µM

*Q* Likewise for O=C1NCCc2nc(COc3ccccc3)sc21 ?
*A* > 10 µM

###

# Measurement target: human mGluR5a receptor (Homo sapiens)
# Construct: host or cells: HEK293A (monoclones H10H and H12H)
# Assay details: Functional Assay 2: Ca2+ mobilization, HEK cells with human mGluR5a receptor (H10H cell line)
# Format: cell-based
# Condition summary: H10H cell line, glutamate EC20
Readout type: EC50 (nM)
The reply should be a number in nM, with the unit left off.

*Q* For O=C1c2sc(COc3ccccc3)nc2CCN1c1cccnc1 , what is its reported EC50?
*A* 4680

*Q* Now give it for O=C1c2sc(COc3ccccc3)nc2CCN1c1cncc(F)c1 too.
*A* 1700

*Q* // same read-out, input: O=C1c2sc(OCc3cccc(F)c3)nc2CCN1c1ccc(F)cc1
*A* 214

*Q* Item: O=C1c2sc(COc3ccc(F)cc3)nc2CCN1c1ccc(F)cn1
*A* 295

*Q* And the next one, C[C@@H](N1CCc2nc(COc3ccc(F)cc3)sc2C1=O)C(C)(C)C ?
*A* 1480

*Q* Please give the result for COc1ccccc1N1CCc2nc(COc3cccc(F)c3)sc2C1=O too.
*A* 871

###

# Measurement target: human mGluR5 receptor (Homo sapiens)
# Construct: expressed in transfected cells; host or cells: HEK-293
# Assay details: Functional Assay 1: intracellular Ca2+ mobilization, positive allosteric modulation of glutamate EC20 response
# Format: cell-based
# Condition summary: human mGluR5 over-expressing HEK-293 cells, glutamate EC20 (~0.2 μM); updated value
pEC50: −log10 of the molar value. Structures can show the parent of a compound that is named as a salt.
Readout type: pEC50

*Q* Param readout = pEC50; param system = human mGluR5 receptor (Homo sapiens); param query = O=C1NCCc2nc(OCc3ccccc3)sc21 ; response: value
*A* < 4.52

*Q* # iterate: O=C1NCCc2nc(OCc3ccccc3F)sc21 [Compound 69, trifluoroacetate]
*A* < 4.52

*Q* Check O=C1NCCc2nc(OCc3ccc(F)cc3)sc21 [Compound 71, trifluoroacetate] too.
*A* < 4.52

*Q* Consider next the molecule N#Cc1cc(COc2nc3c(s2)C(=O)NCC3)ccc1F in the same way.
*A* < 4.52

*Q* Again, but for N#Cc1ccccc1COc1nc2c(s1)C(=O)N(c1ccc(F)cc1F)CC2
*A* < 4.52

*Q* // next record O=C1c2sc(OCc3ccc(F)c(F)c3)nc2CCN1c1ccc(F)cc1F
*A* < 4.52

*Q* Another molecule to look at: O=C1c2sc(OCc3ccc(F)cc3F)nc2CCN1c1ccc(F)cc1F
*A* 6.02

*Q* What would you report for O=C1c2sc(OCc3ccccc3C(F)(F)F)nc2CCN1c1ccc(F)cc1F ?
*A* < 4.52

*Q* Also, O=C1c2sc(OCc3ccccc3F)nc2CCN1c1ccc(F)cc1F please.
*A* 6.21

*Q* O=C1c2sc(OCc3ccccc3)nc2CCN1c1ccc(F)cc1 , same question.
*A* 5.89

*Q* Here is the next molecule: N#Cc1ccc(COc2nc3c(s2)C(=O)N(c2ccc(F)cc2F)CC3)cc1
*A* < 4.52

*Q* Here is the next molecule: COc1ccccc1COc1nc2c(s1)C(=O)N(c1ccc(F)cc1F)CC2
*A* < 4.52

The measured values listed here are drawn from patent US9040707B2.
